- System: Cryptococcus neoformans
- METHOD_DESCRIPTION: Antifungal activity against Cryptococcus neoformans ATCC 90113 by NCCLS method
- Assay type: functional, organism-based
Label Satisfied when IC50 is strictly below 0.6 µg/mL; at or above that, label Not satisfied.

Completed entries (count: 4):
Prompt: Given "C[n+]1cccc2c1c1cc(C#N)ccc1n2CCCCCC1CCCCC1.[I-]" , is recorded IC50 strictly lower than 0.6 µg/mL?
Completion: Not satisfied

Prompt: Given "C[n+]1cccc2c1c1cc(Cl)ccc1n2CCCCCC1CCCCC1.[I-]" , is recorded IC50 strictly lower than 0.6 µg/mL?
Completion: Satisfied

Prompt: Given "CSc1ccc2c(c1)c1c(ccc[n+]1C)n2CCCCCC1CCCCC1.[I-]" , is recorded IC50 strictly lower than 0.6 µg/mL?
Completion: Satisfied

Prompt: Given "C[n+]1cccc2c1c1cc(C(F)(F)F)ccc1n2CCCCCC1CCCCC1.[I-]" , is recorded IC50 strictly lower than 0.6 µg/mL?
Completion: Satisfied

Next:
Prompt: Given "C[n+]1cccc2c1c1ccc(Cl)cc1n2CCCCCC1CCCCC1.[I-]" , is recorded IC50 strictly lower than 0.6 µg/mL?
Completion: Satisfied

Prompt: Given "C[n+]1cccc(N(CCCCCC2CCCCC2)c2cccc(Cl)c2)c1.[I-]" , is recorded IC50 strictly lower than 0.6 µg/mL?
Completion: Not satisfied

Prompt: Given "C[n+]1cccc2c1c1cccc(Cl)c1n2CCCCCC1CCCCC1.[I-]" , is recorded IC50 strictly lower than 0.6 µg/mL?
Completion: Satisfied

Prompt: Given "C[n+]1cccc2c1c1ccccc1n2CCCCCC1CCCCC1.[I-]" , is recorded IC50 strictly lower than 0.6 µg/mL?
Completion: Satisfied

Prompt: Given "COc1ccc2c(c1)c1c(ccc[n+]1C)n2CCCCCC1CCCCC1.[I-]" , is recorded IC50 strictly lower than 0.6 µg/mL?
Completion: Not satisfied

Prompt: Given "Cc1ccc2c(c1)c1c(ccc[n+]1C)n2CCCCCC1CCCCC1.[I-]" , is recorded IC50 strictly lower than 0.6 µg/mL?
Completion: Not satisfied

The measured values listed here are drawn from ChEMBL document CHEMBL1781968.
